The measurements presented in this section are drawn from patent US9656962B2.

- target system: UniProt P41145
- experimental protocol: κ-opioid receptor [35S]GTPγS functional assay, HEK-293 or CHO cells (Table 4)
- Assay type: biochemical
- condition set: relative to U69,593
So basically: Emax at 60% or higher? That is Satisfied. Lower than 60%? That is Not satisfied.

>>> category_label("CC(C)CNC(=O)[C@H]1C[C@]23CCN(CC4CC4)[C@H](Cc4ccc(O)cc42)[C@]3(O)C1")
"Satisfied"

Task: Textbook exercise: given the entry `N=C(N)NCCCCNC(=O)[C@@H]1C[C@]23CCN(CC4CC4)[C@H](Cc4ccc(O)cc42)[C@]3(O)C1` , state whether its Emax is greater than or equal to 60%.
Output: Not satisfied

Task: Textbook exercise: given the entry `O=C(NCc1ccc(Cl)c(Cl)c1)[C@@H]1C[C@]23CCN(CC4CC4)[C@H](Cc4ccc(O)cc42)[C@]3(O)C1` , state whether its Emax is greater than or equal to 60%.
Output: Not satisfied

Task: Textbook exercise: given the entry `O=C(NCc1ccccc1)[C@H]1C[C@]23CCN(CC4CC4)[C@H](Cc4ccc(O)cc42)[C@]3(O)C1` , state whether its Emax is greater than or equal to 60%.
Output: Satisfied

Task: Textbook exercise: given the entry N[C@@H]1CC23CCN(CC4CC4)[C@H](Cc4ccc(O)cc42)[C@]3(O)C1 (stereo in doubt) , state whether its Emax is greater than or equal to 60%.
Output: Satisfied

Task: Textbook exercise: given the entry `O=C(NCc1ccc(O)cc1O)[C@@H]1C[C@]23CCN(CC4CC4)[C@H](Cc4ccc(O)cc42)[C@]3(O)C1` , state whether its Emax is greater than or equal to 60%.
Output: Not satisfied

Task: Textbook exercise: given the entry `O=C(NCc1ccc(Cl)c(Cl)c1)[C@H]1C[C@]23CCN(CC4CC4)[C@H](Cc4ccc(O)cc42)[C@]3(O)C1` , state whether its Emax is greater than or equal to 60%.
Output: Satisfied

Task: Textbook exercise: given the entry `O=C(O)[C@@H]1C[C@]23CCN(CC4CC4)[C@H](Cc4ccc(O)cc42)[C@]3(O)C1` , state whether its Emax is greater than or equal to 60%.
Output: Not satisfied

Task: Textbook exercise: given the entry `Cc1ccc(CNC(=O)[C@@H]2C[C@]34CCN(CC5CC5)[C@H](Cc5ccc(O)cc53)[C@]4(O)C2)cc1` , state whether its Emax is greater than or equal to 60%.
Output: Not satisfied

Task: Textbook exercise: given the entry `COC(=O)[C@@H]1C[C@]23CCN(CC4CC4)[C@H](Cc4ccc(O)cc42)[C@]3(O)C1` , state whether its Emax is greater than or equal to 60%.
Output: Satisfied

Task: Textbook exercise: given the entry `O=C(NCc1ccc(O)cc1O)[C@H]1C[C@]23CCN(CC4CC4)[C@H](Cc4ccc(O)cc42)[C@]3(O)C1` , state whether its Emax is greater than or equal to 60%.
Output: Satisfied

Task: Textbook exercise: given the entry `NC(=O)[C@H]1C[C@]23CCN(CC4CC4)[C@H](Cc4ccc(O)cc42)[C@]3(O)C1` , state whether its Emax is greater than or equal to 60%.
Output: Not satisfied

Task: Textbook exercise: given the entry `Cc1ccc(CNC(=O)[C@H]2C[C@]34CCN(CC5CC5)[C@H](Cc5ccc(O)cc53)[C@]4(O)C2)cc1` , state whether its Emax is greater than or equal to 60%.
Output: Satisfied

Task: Textbook exercise: given the entry `O=C(NCCN1CCOCC1)[C@H]1C[C@]23CCN(CC4CC4)[C@H](Cc4ccc(O)cc42)[C@]3(O)C1` , state whether its Emax is greater than or equal to 60%.
Output: Satisfied
